Data credit: patent US9102667B2

Target: AKAP-PKA interaction (Homo sapiens)
Sequence (P13861 2-404 limits assumed): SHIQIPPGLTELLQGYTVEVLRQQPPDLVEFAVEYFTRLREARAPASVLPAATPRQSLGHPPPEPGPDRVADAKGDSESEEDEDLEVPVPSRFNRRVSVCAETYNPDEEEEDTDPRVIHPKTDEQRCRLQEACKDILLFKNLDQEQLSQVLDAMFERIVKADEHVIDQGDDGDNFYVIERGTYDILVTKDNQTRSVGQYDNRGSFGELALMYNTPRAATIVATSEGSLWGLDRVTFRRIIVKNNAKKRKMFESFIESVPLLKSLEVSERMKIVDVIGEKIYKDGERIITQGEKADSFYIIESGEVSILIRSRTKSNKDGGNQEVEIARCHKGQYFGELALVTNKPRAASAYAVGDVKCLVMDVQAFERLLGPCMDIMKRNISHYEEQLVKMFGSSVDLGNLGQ
Experiment: AKAP-PKA interaction (disruption) assays of Examples 1-3: alpha screen, surface plasmon resonance, ELISA (combined classification)
Assay type: binding
Conditions: absolute values stated in structure-activity text; method not specified; read-out: IC50
IC50 by entry:

Take a look at these entries with their results.
[
  {
    "given.smiles": "O=C1/C(=C/Nc2ncc([N+](=O)[O-])s2)Sc2ccccc21",
    "IC50": "1 to 5 µM"
  },
  {
    "given.smiles": "O=C1/C(=C/Nc2ncc[nH]2)Sc2ccccc21",
    "IC50": "~80 µM"
  }
]

Next molecule, please.
IN: Which IC50 is listed for `O=C1/C(=C/Nc2nccs2)Sc2ccccc21` ?
OUT: ~80 µM

* * *

Target: PKA subunit RIIα (Homo sapiens)
Sequence (P13861 whole entry): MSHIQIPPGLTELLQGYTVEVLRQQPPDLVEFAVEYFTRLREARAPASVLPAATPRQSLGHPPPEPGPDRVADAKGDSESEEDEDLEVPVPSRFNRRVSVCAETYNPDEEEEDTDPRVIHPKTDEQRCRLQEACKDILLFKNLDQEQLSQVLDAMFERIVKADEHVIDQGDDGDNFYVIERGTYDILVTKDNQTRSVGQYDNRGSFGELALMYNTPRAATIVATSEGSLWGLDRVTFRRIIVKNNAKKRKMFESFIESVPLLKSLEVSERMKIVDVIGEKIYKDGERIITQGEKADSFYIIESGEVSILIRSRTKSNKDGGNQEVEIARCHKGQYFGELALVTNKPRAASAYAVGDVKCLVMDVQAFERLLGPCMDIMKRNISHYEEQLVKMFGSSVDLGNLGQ
Experiment: Microscale Thermophoresis (MST)
Settings: 20 mM Phosphate, pH 7.5, 100 mM NaCl, 0.05% Tween 20, 5% DMSO, 25° C.
Kd by entry:
Kindly format the answer as number then unit.

Take a look at these entries with their results.
[
  {
    "compound": "N#Cc1cnc(N/C=C2\\Sc3ccccc3C2=O)s1 [T2/15]",
    "test.result": "98.1 µM"
  },
  {
    "compound": "O=C(O)c1ccc(N/C=C2\\Sc3ccccc3C2=O)cc1 [T2/59]",
    "test.result": "88.5 µM"
  }
]

Next compound, please.
IN: What measured Kd is associated with Cc1cnc(N/C=C2\Sc3ccccc3C2=O)s1 [T2/11] on PKA subunit RIIα (Homo sapiens)?
OUT: 31.9 µM

* * *

Molecular target: AKAP-PKA interaction (Homo sapiens)
Assay: AKAP-PKA interaction (disruption) assays of Examples 1-3: alpha screen, surface plasmon resonance, ELISA (combined classification)
Assay type: binding
Settings: class from IC50 values in assays of Examples 1, 2 or 3; read-out: Activity (IC50 class)
endpoint.name: IC50

[
  {
    "given.smiles": "O=C1/C(=C/Nc2ncc3ccccc3n2)Sc2ccccc21",
    "endpoint.name": "IC50",
    "test.result": "250 to 750 µM"
  }
]

IN: What measured IC50 is associated with `O=C1/C(=C/Nc2ncns2)Sc2ccccc21` on AKAP-PKA interaction (Homo sapiens)?
OUT: < 150 µM

IN: What measured IC50 is associated with `O=C1/C(=C/Nc2ncc(Br)s2)Sc2ccccc21` on AKAP-PKA interaction (Homo sapiens)?
OUT: < 50 µM

IN: What measured IC50 is associated with `O=C(O)c1ccc(N/C=C2\Cc3ccccc3C2=O)cc1` on AKAP-PKA interaction (Homo sapiens)?
OUT: < 150 µM

IN: What measured IC50 is associated with `O=C1/C(=N/Nc2ncc([N+](=O)[O-])s2)Sc2ccccc21` on AKAP-PKA interaction (Homo sapiens)?
OUT: < 25 µM

IN: What measured IC50 is associated with `Cc1coc(N/C=C2\Sc3ccccc3C2=O)n1` on AKAP-PKA interaction (Homo sapiens)?
OUT: < 50 µM

IN: What measured IC50 is associated with `O=C1/C(=C/Nc2cc([N+](=O)[O-])ccc2O)Sc2ccccc21` on AKAP-PKA interaction (Homo sapiens)?
OUT: 250 to 750 µM

IN: What measured IC50 is associated with `N#Cc1cnc(N/C=C2\Sc3ccccc3C2=O)s1` on AKAP-PKA interaction (Homo sapiens)?
OUT: < 25 µM

IN: What measured IC50 is associated with `O=C1/C(=C/Nc2nc3ccccc3s2)Oc2ccccc21` on AKAP-PKA interaction (Homo sapiens)?
OUT: 250 to 750 µM
